- testedTarget: cGMP-dependent 3',5'-cyclic phosphodiesterase (Homo sapiens, UniProt O00408)
- Sequence (O00408 whole entry): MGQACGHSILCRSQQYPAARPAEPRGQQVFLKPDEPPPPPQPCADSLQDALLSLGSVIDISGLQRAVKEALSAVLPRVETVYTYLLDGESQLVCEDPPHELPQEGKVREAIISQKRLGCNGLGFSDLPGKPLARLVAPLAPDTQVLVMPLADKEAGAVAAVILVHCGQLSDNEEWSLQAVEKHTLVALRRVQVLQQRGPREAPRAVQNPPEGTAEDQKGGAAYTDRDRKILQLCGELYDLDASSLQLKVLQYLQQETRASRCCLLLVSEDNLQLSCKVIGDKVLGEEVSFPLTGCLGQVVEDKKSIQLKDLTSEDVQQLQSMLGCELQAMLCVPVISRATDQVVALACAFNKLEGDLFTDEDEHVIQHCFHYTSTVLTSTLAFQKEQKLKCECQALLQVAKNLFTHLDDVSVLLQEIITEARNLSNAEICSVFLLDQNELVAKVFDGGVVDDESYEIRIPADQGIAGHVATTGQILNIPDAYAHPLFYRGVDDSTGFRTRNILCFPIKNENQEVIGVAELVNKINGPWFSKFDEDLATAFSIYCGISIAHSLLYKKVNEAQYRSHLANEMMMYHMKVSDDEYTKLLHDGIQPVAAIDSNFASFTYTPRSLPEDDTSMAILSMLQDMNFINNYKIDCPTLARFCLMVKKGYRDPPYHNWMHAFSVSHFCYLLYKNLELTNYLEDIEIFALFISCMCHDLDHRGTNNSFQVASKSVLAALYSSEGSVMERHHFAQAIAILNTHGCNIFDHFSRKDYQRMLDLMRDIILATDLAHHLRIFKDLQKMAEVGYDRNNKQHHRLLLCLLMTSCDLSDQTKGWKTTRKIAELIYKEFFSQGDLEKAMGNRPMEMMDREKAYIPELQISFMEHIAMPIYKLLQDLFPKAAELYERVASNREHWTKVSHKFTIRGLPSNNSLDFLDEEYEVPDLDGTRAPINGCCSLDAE
- experiment: Inhibition of cGMP stimulated-PDE 2 from porcine aorta
- assayContext: target entry is the homologue from another species
pIC50: −log10 of the molar value.
pIC50 values for the compounds below.

# annotated cases, reported pIC50 shown
query: Record request: pIC50 value, item "COc1ccc2ncnc(NCc3ccc4c(c3)OCO4)c2c1"
result: < 4.00

query: Queued: "CSc1ccc2ncnc(NCc3ccc4c(c3)OCO4)c2c1"
result: < 4.00

query: Queued: "Clc1ccc2ncnc(NCc3ccc4c(c3)OCO4)c2c1"
result: < 4.00

query: Queued: "Cc1ccc2ncnc(NCc3ccc4c(c3)OCO4)c2c1"
result: < 4.00

Continuing:
query: Record request: pIC50 value, item "N#Cc1ccc2ncnc(NCc3ccc4c(c3)OCO4)c2c1"
result: < 4.00

* * *

- testedTarget: Phosphodiesterase 4A (Sus scrofa, UniProt O77823)
- Sequence (O77823 whole entry): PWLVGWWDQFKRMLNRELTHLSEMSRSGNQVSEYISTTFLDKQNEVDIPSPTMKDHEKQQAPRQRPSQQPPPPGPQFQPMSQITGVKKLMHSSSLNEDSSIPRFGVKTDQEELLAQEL
recordedMetric: IC50

query: Record request: IC50 value, item "COc1ccc2ncnc(NCc3ccc4c(c3)OCO4)c2c1"
result: > 100 µM

* * *

- Organism: Sus scrofa
- experiment: Relaxant effect on PGF2-alpha precontracted porcine coronary arteries
- Format: functional, organism-based
EC50 values for the compounds below.

# annotated cases, reported EC50 shown
query: Record request: EC50 value, item "COc1cc2c(NCc3ccc4c(c3)OCO4)ncnc2c(OC)c1OC"
result: 2.13 µM

query: Queued: "Cc1ccc2ncnc(NCc3ccc4c(c3)OCO4)c2c1"
result: 1.56 µM

query: Queued: "Clc1ccc2ncnc(NCc3ccc4c(c3)OCO4)c2c1"
result: 0.19 µM

Continuing:
query: Record request: EC50 value, item "COc1ccc2ncnc(NCc3ccc4c(c3)OCO4)c2c1"
result: 1.19 µM

query: Queued: "CSc1ccc2ncnc(NCc3ccc4c(c3)OCO4)c2c1"
result: 0.12 µM

query: Queued: "N#Cc1ccc2ncnc(NCc3ccc4c(c3)OCO4)c2c1"
result: 0.3 µM
